test system: NCI/ADR-RES; assay: Intrinsic cytotoxicity against human MCF7/ADR cells assessed as inhibition of cell proliferation after 48 hrs by MTT assay; format: cell-based
measurementName: IC50

Here is how some molecules turned out for IC50.
Any idea what its IC50 is? The molecule is CC(=O)O/C1=C(\C)[C@H]2O[C@@](C)([C@@H](OC(C)=O)CC(C)(C)[C@H](OC(C)=O)[C@H]1OC(C)=O)[C@@H](OC(C)=O)[C@]1(OC(C)=O)[C@@H]2[C@@H](OC(=O)c2ccccc2)[C@@H](C)[C@@H]1OC(C)=O
> 150 µM

Next: CC(=O)O[C@@H]1C[C@@H](OC(=O)c2ccccc2)/C(C)=C/[C@H]2[C@@H](OC(=O)c3ccccc3)[C@@H](C)[C@H](OC(=O)c3ccc(Br)cc3)[C@]2(OC(C)=O)[C@H](O)[C@](C)(O)/C=C/C1(C)C
> 150 µM

Others:
Any idea what its IC50 is? The molecule is CC(=O)O[C@@H]1C[C@@H](OC(=O)c2ccccc2)/C(C)=C/[C@H]2[C@@H](OC(=O)c3ccccc3)[C@@H](C)[C@H](OC(C)=O)[C@]2(OC(C)=O)[C@H](O)[C@](C)(O)/C=C/C1(C)C
> 150 µM

---

molecular target: UniProt:P08183; test: Inhibition of P-gp mediated efflux in adriamycin-resistant human HepG2 cells assessed as intracellular rhodamine-123 accumulation at 10 uM incubated in dark condition for 90 mins by flow cytometry relative to control; format: cell-based
Sequence (P08183 whole entry): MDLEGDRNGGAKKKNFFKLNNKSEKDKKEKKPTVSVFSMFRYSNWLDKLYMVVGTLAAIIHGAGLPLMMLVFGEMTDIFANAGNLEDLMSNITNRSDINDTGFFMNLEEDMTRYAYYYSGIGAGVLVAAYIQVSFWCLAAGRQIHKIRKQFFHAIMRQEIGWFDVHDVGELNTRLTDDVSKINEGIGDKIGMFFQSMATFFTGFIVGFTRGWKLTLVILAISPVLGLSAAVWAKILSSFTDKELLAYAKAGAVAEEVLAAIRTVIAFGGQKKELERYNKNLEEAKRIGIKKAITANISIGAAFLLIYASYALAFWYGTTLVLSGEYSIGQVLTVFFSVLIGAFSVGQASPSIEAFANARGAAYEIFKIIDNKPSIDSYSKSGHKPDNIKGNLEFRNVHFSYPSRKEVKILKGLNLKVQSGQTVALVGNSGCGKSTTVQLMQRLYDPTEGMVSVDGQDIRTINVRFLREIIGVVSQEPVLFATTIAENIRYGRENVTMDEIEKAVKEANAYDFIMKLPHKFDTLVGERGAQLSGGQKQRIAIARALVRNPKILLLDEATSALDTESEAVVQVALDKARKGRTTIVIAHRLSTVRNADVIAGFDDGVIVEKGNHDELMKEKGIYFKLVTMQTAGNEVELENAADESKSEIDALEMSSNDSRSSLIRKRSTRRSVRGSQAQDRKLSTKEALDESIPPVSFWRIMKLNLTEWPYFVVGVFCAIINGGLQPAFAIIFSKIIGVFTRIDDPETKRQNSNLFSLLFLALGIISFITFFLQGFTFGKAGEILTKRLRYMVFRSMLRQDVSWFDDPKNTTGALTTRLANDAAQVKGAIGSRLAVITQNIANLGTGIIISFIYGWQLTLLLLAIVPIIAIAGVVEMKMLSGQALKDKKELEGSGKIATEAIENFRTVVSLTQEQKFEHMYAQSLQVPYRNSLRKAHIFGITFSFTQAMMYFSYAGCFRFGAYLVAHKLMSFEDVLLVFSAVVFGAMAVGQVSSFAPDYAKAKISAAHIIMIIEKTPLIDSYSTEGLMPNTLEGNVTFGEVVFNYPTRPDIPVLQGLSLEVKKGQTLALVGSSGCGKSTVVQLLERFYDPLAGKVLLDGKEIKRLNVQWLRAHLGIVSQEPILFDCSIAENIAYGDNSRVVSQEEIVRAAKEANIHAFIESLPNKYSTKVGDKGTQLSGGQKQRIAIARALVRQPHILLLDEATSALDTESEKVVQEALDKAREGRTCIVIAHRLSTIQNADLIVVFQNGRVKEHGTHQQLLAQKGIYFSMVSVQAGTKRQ
measurementName: INH

Any idea what its INH is? The compound is CC(=O)O[C@@H]1C[C@@H](OC(=O)c2ccccc2)/C(C)=C/[C@H]2[C@@H](OC(=O)c3ccccc3)[C@@H](C)[C@H](O)[C@]2(OC(C)=O)[C@H](OC(C)=O)[C@](C)(O)/C=C/C1(C)C
Active

Next: CC(=O)O[C@@H]1[C@@H](OC(C)=O)C(=O)/C(C)=C/[C@H]2[C@@H](OC(=O)c3ccccc3)[C@@H](C)[C@H](OC(C)=O)[C@]2(OC(C)=O)[C@H](OC(C)=O)/C(C)=C/CC1(C)C
Active

Next: CC(=O)O/C1=C(\C)[C@@H](O)[C@H]2[C@@H](OC(=O)c3ccccc3)[C@@H](C)[C@H](OC(C)=O)[C@]2(OC(C)=O)[C@H](OC(C)=O)/C(C)=C/CC(C)(C)[C@H](OC(C)=O)[C@H]1OC(C)=O
Active

Next: CC(=O)O[C@@H]1C[C@@H](OC(=O)c2ccccc2)/C(C)=C/[C@H]2[C@@H](OC(=O)c3ccccc3)[C@@H](C)[C@H](O)[C@]2(OC(C)=O)[C@H](O)[C@](C)(O)CCC1(C)C
Active

Others:
Any idea what its INH is? The compound is CC(=O)O/C1=C(\C)C(=O)[C@H]2[C@@H](OC(=O)c3ccccc3)[C@@H](C)[C@H](OC(C)=O)[C@]2(OC(C)=O)[C@H](OC(C)=O)/C(C)=C/CC(C)(C)[C@H](OC(C)=O)[C@H]1OC(C)=O
Active

Next: COc1cc2c(cc1OC)CN(CCc1ccc(NC(=O)c3cc(OC)c(OC)cc3NC(=O)c3cnc4ccccc4c3)cc1)CC2
Active

Next: CC(=O)O[C@@H]1C[C@@H](OC(=O)c2ccccc2)/C(C)=C/[C@H]2[C@@H](OC(=O)c3ccccc3)[C@@H](C)[C@H](OC(C)=O)[C@]2(OC(C)=O)C(=O)[C@](C)(O)/C=C/C1(C)C
Active
